Recorded pIC50 for compounds tested on UniProt P10635, drawn from a number of studies.
pIC50: −log10 of the molar value.
recorded.endpoint: pIC50

>  <compound>
CCCCOCCOc1ccc(-c2ccc3c(c2)C=C(C(=O)Nc2ccc([S+]([O-])Cc4c(CC)ccnc4C)cc2)CCCN3CC2CCCO2)cc1 (single isomer, unassigned)

>  <assay.result>
< 4.30

$$$$
>  <compound>
CC(=O)N1CCC(c2cc(OC3CC3)c(Nc3ncc(Cl)c(Nc4cn(C)nc4S(=O)(=O)C(C)C)n3)cc2C)CC1

>  <assay.result>
< 5.00

$$$$
>  <compound>
CC(C)(O)c1ccc(CCC2(C3CCCC3)CC(O)=C(Cc3nc4ncc(Cl)cn4n3)C(=O)O2)cc1F (stereo not drawn)

>  <assay.result>
6.22

$$$$

====

pIC50: −log10 of the molar value.
Recorded pIC50 for compounds tested on Cytochrome P450 2D6 (Homo sapiens, UniProt P10635), drawn from a number of studies.

>  <compound>
CCc1ccc(Nc2ccc(Cc3c[nH]c4ncnc(OCCOC)c34)c(F)n2)cn1

>  <pIC50>
< 5.00

$$$$
>  <compound>
Cc1cc(Nc2ncc(Cl)c(Nc3cn(C)nc3S(=O)(=O)CC(C)C)n2)c(OC2CC2)cc1C1CCN(C)CC1

>  <pIC50>
< 5.00

$$$$
>  <compound>
CCc1cc(CCC2(C3CCCC3)CC(O)=C(Cc3nc4nc(C)cc(C)n4n3)C(=O)O2)cc(Cl)c1O (centres unmarked)

>  <pIC50>
6.72

$$$$
>  <compound>
CC1(C)CNc2cc(NC(=O)c3cccnc3NCc3ccnc4c3CCN4)ccc21

>  <pIC50>
< 4.70

$$$$
>  <compound>
CC1(C)CC(=O)Nc2cc(NC(=O)c3cccnc3NCc3ccnc4[nH]ccc34)ccc21

>  <pIC50>
< 4.70

$$$$
>  <compound>
Cc1cc(C)n2nc(CC3=C(O)CC(CCc4ccc(C5(C#N)CC5)c(F)c4)(C4CCCC4)OC3=O)nc2n1 (racemic)

>  <pIC50>
6.52

$$$$
>  <compound>
O=C(c1ccc(NC2CCC(F)(F)CC2)nc1F)c1c[nH]c2ncnc(NCC(F)(F)F)c12

>  <pIC50>
< 5.00

$$$$
>  <compound>
COc1ccc(Nc2ccc(Cc3c[nH]c4ncnc(OC)c34)c(F)n2)cn1

>  <pIC50>
< 5.00

$$$$
>  <compound>
CNC(=O)c1cc(COC2=NN=C(Nc3ccc(Cl)cc3)C3C=COC23)ccn1 (centres unmarked)

>  <pIC50>
< 4.70

$$$$
>  <compound>
CC1(C)CC(=O)Nc2cc(NC(=O)c3cccnc3NCc3ccnc4c3CCN4)ccc21

>  <pIC50>
< 4.70

$$$$
>  <compound>
Nc1ncnc2[nH]cc(C(=O)c3ccc(Nc4ccc(C5CC5)nc4)nc3F)c12

>  <pIC50>
< 5.00

$$$$
>  <compound>
Fc1cc(F)c(F)c(-c2ccc(N[C@H]3C[C@@H]4CN(CC5CCOCC5)C[C@@H]4C3)nn2)c1

>  <pIC50>
< 4.52

$$$$
>  <compound>
CCc1ccc(Nc2ccc(C(=O)c3c[nH]c4ncnc(NC(C)C)c34)c(F)n2)cn1

>  <pIC50>
< 5.00

$$$$
>  <compound>
CO[C@H]1[C@@H](C)SC(N)=N[C@]1(C)c1cc(NC(=O)c2cnc(OCF)cn2)ccc1F

>  <pIC50>
≤ 4.70

$$$$
>  <compound>
COc1ccc(Nc2ccc(C(=O)c3c[nH]c4ncnc(NC5CC5)c34)c(F)n2)cn1

>  <pIC50>
< 5.00

$$$$
>  <compound>
CCCCNc1ncnc2[nH]cc(C(=O)c3ccc(Nc4ccc(OC)nc4)nc3F)c12

>  <pIC50>
< 5.00

$$$$
>  <compound>
COCCC(c1cncn1[C@H](C)c1ccc(F)cc1)N1CCN(S(=O)(=O)c2cnc(N3CCN(C)CC3)s2)CC1 (single isomer, unassigned)

>  <pIC50>
5.39

$$$$
>  <compound>
COc1ccc(Nc2ccc(C(=O)c3c[nH]c4ncnc(NC5CCCCC5)c34)c(F)n2)cn1

>  <pIC50>
< 5.00

$$$$
>  <compound>
CCCS(=O)(=O)Nc1ccc(F)c(C(=O)c2c[nH]c3ncc(Cl)c(C)c23)c1F

>  <pIC50>
< 5.00

$$$$
>  <compound>
CCc1ccc(Nc2ccc(C(=O)c3c[nH]c4ncnc(NC5CC5)c34)c(F)n2)cn1

>  <pIC50>
< 5.30

$$$$
>  <compound>
C[C@H]1SC(N)=N[C@](C)(c2cccc(NC(=O)c3ccc(OCF)cn3)c2)[C@H]1F

>  <pIC50>
≤ 4.70

$$$$
>  <compound>
CS(=O)(=O)CC(=O)Nc1c(-c2ccc(F)c(F)c2)nn2c1C(=O)N[C@@]1(CCOc3cc(F)cc(F)c31)C2

>  <pIC50>
< 4.70

$$$$
>  <compound>
COc1ccc(Nc2ccc(C(=O)c3c[nH]c4ncnc(NCC5CC5)c34)c(F)n2)cn1

>  <pIC50>
< 5.00

$$$$

====

Recorded pIC50 for molecules tested on UniProt P10635, drawn from a number of studies.
pIC50: −log10 of the molar value.
recorded.endpoint: pIC50

>  <molecule>
CCc1ccc(Nc2ccc(C(=O)c3c[nH]c4ncnc(NCC(C)(C)O)c34)c(F)n2)cn1

>  <recorded.endpoint>
pIC50

>  <assay.result>
< 5.00

$$$$
>  <molecule>
C[C@]1(c2cc(NC(=O)c3ccc(C#N)cn3)ccc2F)N=C(N)O[C@@H]2CC(F)(F)C[C@@H]21

>  <recorded.endpoint>
pIC50

>  <assay.result>
< 5.00

$$$$
>  <molecule>
Fc1nc(NC2CCC(F)(F)CC2)ccc1Cc1c[nH]c2ncc(Cl)cc12

>  <recorded.endpoint>
pIC50

>  <assay.result>
< 5.00

$$$$
>  <molecule>
C[C@@H](NCC1CCN(c2c(F)cc(C(=O)O)cc2F)CC1c1ccccc1)c1csc2ccccc12 (some centres unmarked)

>  <recorded.endpoint>
pIC50

>  <assay.result>
≤ 4.70

$$$$
>  <molecule>
CN(C)C(=O)CCC(=O)Nc1cc2n(n1)CCN2c1cccc(Cl)c1

>  <recorded.endpoint>
pIC50

>  <assay.result>
< 4.70

$$$$
>  <molecule>
C[C@@H](c1ccccc1-c1cccc2c1OCC2)n1cncc1C(=O)N1CCC2NCCO[C@@H]2C1 (some centres unmarked)

>  <recorded.endpoint>
pIC50

>  <assay.result>
5.15

$$$$
>  <molecule>
CC(=O)Nc1cc2n(n1)CCN2c1ccc2c(c1)CCC(=O)N2C

>  <recorded.endpoint>
pIC50

>  <assay.result>
< 4.70

$$$$
>  <molecule>
C[C@@H](c1ccccc1-c1ccc(F)cc1)n1cncc1C(=O)N1CCC(NC2CCC(O)CC2)CC1 (some centres unmarked)

>  <recorded.endpoint>
pIC50

>  <assay.result>
5.23

$$$$

====

Recorded IC50 for compounds tested on Cytochrome P450 2D6 (Homo sapiens, UniProt P10635), drawn from a number of studies.

>  <test.smiles>
O=C(Nc1ccc(OC(F)(F)F)cc1)c1cc(F)cnc1NCc1ccnc2[nH]ccc12

>  <IC50>
> 20 µM

$$$$
>  <test.smiles>
CC1(C)CN(C(=O)CN)Cc2cc(NC(=O)c3cccnc3NCc3ccnc4[nH]ccc34)ccc21

>  <IC50>
> 20 µM

$$$$
>  <test.smiles>
CC(C)(O)c1cc(F)c(-c2cnc(C(C)(C)O)c(N)c2)cc1N

>  <IC50>
> 50 µM

$$$$
>  <test.smiles>
CCc1ccc(Nc2ccc(C(=O)c3c[nH]c4ncnc(NCC5CC5)c34)c(F)n2)cn1

>  <IC50>
> 10 µM

$$$$
>  <test.smiles>
CNC(=O)Nc1cc2n(n1)CCN2c1cc(C(=O)N2CCOCC2)cc(-c2ccc(N)nc2)c1

>  <IC50>
> 20 µM

$$$$
>  <test.smiles>
CC1(C)SC(N2CCOc3cccnc32)=NC1=O

>  <IC50>
> 20 µM

$$$$
>  <test.smiles>
O=C(Nc1ccc(OC(F)(F)F)cc1)c1cc(F)cnc1NCc1ccnc2[nH]ncc12

>  <IC50>
> 20 µM

$$$$

====

Recorded IC50 for compounds tested on Cytochrome P450 2D6 (Homo sapiens), drawn from a number of studies.

>  <compound>
C[C@H](c1ccc(F)cc1)n1cncc1C1CCCC2CN(S(=O)(=O)c3cnc(Nc4ccccn4)s3)CCN21 (single isomer, unassigned)

>  <IC50>
7.13 µM

$$$$
>  <compound>
CNc1ncnc2[nH]cc(C(=O)c3ccc(Nc4ccc(C)nc4)nc3F)c12

>  <IC50>
< 5 µM

$$$$
>  <compound>
CC(C)C[C@H]1NC(=O)[C@@H](C)N(C)C(=O)[C@H](C2CC2)NC[C@@H](C)Oc2ccccc2CC[C@H](C)NC1=O

>  <IC50>
> 100 µM

$$$$
>  <compound>
C[C@H]1SC(N)=N[C@](C)(c2cc(NC(=O)c3ncc(C#N)cc3F)ccc2F)[C@H]1F

>  <IC50>
≥ 10 µM

$$$$
>  <compound>
C[C@]1(c2cc(NC(=O)c3ccc(C#N)cn3)ccc2F)N=C(N)O[C@H](CF)[C@@H]1OCC(F)(F)F

>  <IC50>
≥ 20 µM

$$$$
